Data origin: ChEMBL document CHEMBL4251603

Parameter pIC50, tested on Lysine-specific histone demethylase 1A (Homo sapiens, UniProt O60341), listed per item.
pIC50: −log10 of the molar value.
test_readout: pIC50

1: O=C(O)c1ccc(CN2CCC(CN[C@H]3C[C@@H]3c3ccccc3)CC2)cc1
2: Cc1ccc(-c2ncc(OCC3CCNC3)cc2-c2ccc(C#N)cc2)cc1 (configuration not stated)
Qu. Which of the two gives a bigger number for pIC50: 1 or 2 ? Indicate which entry you chose by stating its label.
Ans. 2

====

Biological target: Amine oxidase [flavin-containing] B (Homo sapiens, UniProt P27338)
Test: Inhibition of MAO-B (unknown origin) using beetle luciferin derived luminogenic substrate preincubated for 15 mins followed by substrate addition measured after 60 mins by MAO-Glo assay
test_readout: IC50 (µM)

Before answering, review these 2 worked examples.
compound	system	IC50 / µM
Clc1ccc(CN[C@H]2C[C@@H]2c2ccccc2)cc1 (relative stereo)	Amine oxidase [flavin-containing] B (Homo sapiens, UniProt P27338)	14.1
O=[N+]([O-])c1cccc(CN[C@H]2C[C@@H]2c2ccccc2)c1 (relative stereo)	Amine oxidase [flavin-containing] B (Homo sapiens, UniProt P27338)	1.4

A: C[C@@H]1[C@H](NCc2ccc(Cl)cc2Cl)[C@H]1c1ccccc1 (relative stereo)
B: C[C@@H]1[C@H](NCc2ccc(Cl)cc2)[C@H]1c1ccccc1 (relative stereo)
C: C[C@@H]1[C@H](NCc2cccc([N+](=O)[O-])c2)[C@H]1c1ccccc1 (relative stereo)
Qu. hey, can you rank those compounds up there by IC50? biggest number first please Give me the labels in the order the question wants.
Ans. A, B, C

====

Target: MAO-B (Homo sapiens, UniProt P27338)
Sequence (P27338 whole entry): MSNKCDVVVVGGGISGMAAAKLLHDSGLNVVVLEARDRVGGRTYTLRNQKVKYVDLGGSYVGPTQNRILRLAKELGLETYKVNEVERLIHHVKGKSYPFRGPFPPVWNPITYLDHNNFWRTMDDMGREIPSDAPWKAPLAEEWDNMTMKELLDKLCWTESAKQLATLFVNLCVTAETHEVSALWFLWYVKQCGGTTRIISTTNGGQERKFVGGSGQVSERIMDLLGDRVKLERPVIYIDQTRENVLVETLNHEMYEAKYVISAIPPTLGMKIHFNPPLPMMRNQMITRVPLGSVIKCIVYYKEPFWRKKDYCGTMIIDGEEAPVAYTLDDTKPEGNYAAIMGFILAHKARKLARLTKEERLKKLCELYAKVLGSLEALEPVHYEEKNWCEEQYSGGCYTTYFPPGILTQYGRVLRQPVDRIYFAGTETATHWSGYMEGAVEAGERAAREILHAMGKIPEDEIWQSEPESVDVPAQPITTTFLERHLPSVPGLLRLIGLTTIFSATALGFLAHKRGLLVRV
Experiment: in vitro
Conditions: MAO-B enzyme (unknown origin), probe beetle luciferin derived luminogenic substrate
test_readout: inhibition at 1 h, 1 µM (%)
Value expressed in %; do not type the unit.

Before answering, review these 2 worked examples.
molecule	system	test_readout	recorded_result
O=[N+]([O-])c1ccc(N[C@H]2C[C@@H]2c2ccccc2)s1 (relative stereo)	MAO-B (Homo sapiens, UniProt P27338)	inhibition at 1 h, 1 µM	79
CCc1ccc(CN[C@H]2C[C@@H]2c2ccccc2)cc1 (relative stereo)	MAO-B (Homo sapiens, UniProt P27338)	inhibition at 1 h, 1 µM	12

Read the next record carefully.
Qu. Can you look up the measured inhibition at 1 h, 1 µM of O=[N+]([O-])c1ccccc1CN[C@H]1C[C@@H]1c1ccccc1 (relative stereo) for me?
Ans. 15
